Listed next: entries and their corresponding IC50.
# tgt: KCNT1 (KNa1.1, Slack) (Homo sapiens, UniProt Q5JUK3)
# testMethodNotes: KCNT1 patch clamp assay (SyncroPatch 384PE automated patch clamp)
# conditionSet: tetracycline inducible HEK-TREX cell line; perforated patch; step from −80 mV to 0 mV; room temperature; read-out: KCNT1-WT IC50

See these solved cases before continuing.
* C[C@H](NC(=O)OC(C)(C)C)c1nc(-c2ccnc(C(F)F)c2)no1 | 1000 to 20000 nM
* C[C@H](NC(=O)c1cn(C)nc1C(C)(C)C)c1nc(-c2cccc(F)c2)no1 | 1000 to 20000 nM
* CC[C@H](NC(=O)OC(C)(C)C)c1nc(-c2ccnc(C)c2)no1 | 1000 to 20000 nM
* C[C@H](NC(=O)c1cc(C(F)(F)F)nn1C)c1nc(-c2ccnc(N3CCCCC3)c2)no1 (single isomer, unassigned) | ≤ 1000 nM
* CO[C@H](C)[C@H](NC(=O)c1cc(C(F)(F)F)nn1C)c1nc(-c2cccc(F)c2)no1 | 1000 to 20000 nM
* CC(C)c1cc(-c2noc([C@H](C)NC(=O)c3cc(C(F)(F)F)nn3C)n2)ccn1 | ≤ 1000 nM
* Cc1cccc(-c2noc([C@H](C)NC(=O)c3cn(C(C)C)nc3C)n2)c1 | ≤ 1000 nM

Kindly review the next molecule as well.
IC50 recorded for this molecule, C[C@H](NC(=O)c1cn(CC(F)(F)F)nc1C1CC1)c1nc(-c2cccc(F)c2)no1 , is 1000 to 20000 nM

---

# tgt: KCNT1 (KNa1.1, Slack) (Homo sapiens)
# testMethodNotes: KCNT1 patch clamp assay (SyncroPatch 384PE automated patch clamp)
# conditionSet: tetracycline inducible HEK-TREX cell line; perforated patch; step from −80 mV to 0 mV; room temperature; read-out: KCNT1-WT IC50
pIC50: −log10 of the molar value.
Consider the following molecules and their measured pIC50 readings.

// solved cases for pIC50 follow
* CC(C)Oc1cc(-c2noc([C@H](C)NC(=O)OC(C)(C)C)n2)ccn1 | ≥ 6.00
* C[C@H](NC(=O)c1cc(-c2ccc(F)cc2)nn1C)c1nc(-c2ccnc(C3CC3)c2)no1 | ≥ 6.00
* CO[C@@H](C)[C@@H](NC(=O)c1cc(C(F)(F)F)nn1C)c1nc(-c2cccc(F)c2)no1 | ≥ 6.00
* CC(NC(=O)c1cc(C(F)(F)F)nn1C)c1nc(-c2ccnc(C3CCC3)c2)no1 (single isomer, unassigned) | ≥ 6.00

Entry CC[C@H](NC(=O)c1cc(C(F)(F)F)nn1C(F)F)c1nc(-c2ccnc(C)c2)no1 , pIC50 reported as ≥ 6.00

---

# tgt: KCNT1 (KNa1.1, Slack) (Homo sapiens)
# testMethodNotes: KCNT1 patch clamp assay (SyncroPatch 384PE automated patch clamp)
# conditionSet: tetracycline inducible HEK-TREX cell line; perforated patch; step from −80 mV to 0 mV; room temperature; read-out: KCNT1-WT IC50
readoutLabel: IC50

- C[C@H](NC(=O)OCc1ccccc1)c1nc(-c2ccnc(C3CC3)c2)no1 [Compound 273]: ≤ 1 µM
- CC[C@H](NC(=O)c1cc(C)n(-c2cccnc2)n1)c1nc(-c2ccnc(C)c2)no1 [Compound 299]: ≥ 20 µM
- C[C@H](NC(=O)c1cc(C(F)(F)F)nn1CC(=O)N(C)C)c1nc(-c2ccnc(C(F)(F)F)c2)no1 [Compound 251]: 1 to 20 µM

Item: C[C@H](NC(=O)c1cc(C(F)(F)F)nn1C)c1nc(-c2ccnc(COC3CC3)c2)no1 [Compound 254] | IC50: 1 to 20 µM

Query Cc1cccc(-c2noc(C(C)NC(=O)c3cc(C(C)(C)C)nn3C)n2)c1 (stereo not shown) [Compound 13] yields IC50 of ≤ 1 µM

Given item C[C@H](NC(=O)c1ccnn1Cc1ccccc1)c1nc(-c2ccnc(C3CC3)c2)no1 [Compound 280] , the value recorded as its IC50 is ≤ 1 µM

# IC50 of C[C@H](NC(=O)c1cc(C(F)(F)F)nn1C(F)F)c1nc(-c2cccc(Cl)c2)no1 (single isomer, unassigned) [Compound 83] = 1 to 20 µM

Lookup result for C[C@H](NC(=O)c1ccnn1C1CCC1)c1nc(-c2ccnc(C3CC3)c2)no1 [Compound 304] ; measured IC50: ≤ 1 µM

IC50 reading for Cn1nc(C(F)(F)F)cc1C(=O)N[C@@H](CCS(C)(=O)=O)c1nc(-c2cccc(F)c2)no1 (single isomer, unassigned) [Compound 144] : 1 to 20 µM

Documented IC50 of CC(C)OC(=O)N[C@@H](C)c1nc(-c2ccnc(C3CC3)c2)no1 [Compound 277] : 1 to 20 µM

---

# tgt: KCNT1 (KNa1.1, Slack) (Homo sapiens, UniProt Q5JUK3)
# Sequence (Q5JUK3 1-1230): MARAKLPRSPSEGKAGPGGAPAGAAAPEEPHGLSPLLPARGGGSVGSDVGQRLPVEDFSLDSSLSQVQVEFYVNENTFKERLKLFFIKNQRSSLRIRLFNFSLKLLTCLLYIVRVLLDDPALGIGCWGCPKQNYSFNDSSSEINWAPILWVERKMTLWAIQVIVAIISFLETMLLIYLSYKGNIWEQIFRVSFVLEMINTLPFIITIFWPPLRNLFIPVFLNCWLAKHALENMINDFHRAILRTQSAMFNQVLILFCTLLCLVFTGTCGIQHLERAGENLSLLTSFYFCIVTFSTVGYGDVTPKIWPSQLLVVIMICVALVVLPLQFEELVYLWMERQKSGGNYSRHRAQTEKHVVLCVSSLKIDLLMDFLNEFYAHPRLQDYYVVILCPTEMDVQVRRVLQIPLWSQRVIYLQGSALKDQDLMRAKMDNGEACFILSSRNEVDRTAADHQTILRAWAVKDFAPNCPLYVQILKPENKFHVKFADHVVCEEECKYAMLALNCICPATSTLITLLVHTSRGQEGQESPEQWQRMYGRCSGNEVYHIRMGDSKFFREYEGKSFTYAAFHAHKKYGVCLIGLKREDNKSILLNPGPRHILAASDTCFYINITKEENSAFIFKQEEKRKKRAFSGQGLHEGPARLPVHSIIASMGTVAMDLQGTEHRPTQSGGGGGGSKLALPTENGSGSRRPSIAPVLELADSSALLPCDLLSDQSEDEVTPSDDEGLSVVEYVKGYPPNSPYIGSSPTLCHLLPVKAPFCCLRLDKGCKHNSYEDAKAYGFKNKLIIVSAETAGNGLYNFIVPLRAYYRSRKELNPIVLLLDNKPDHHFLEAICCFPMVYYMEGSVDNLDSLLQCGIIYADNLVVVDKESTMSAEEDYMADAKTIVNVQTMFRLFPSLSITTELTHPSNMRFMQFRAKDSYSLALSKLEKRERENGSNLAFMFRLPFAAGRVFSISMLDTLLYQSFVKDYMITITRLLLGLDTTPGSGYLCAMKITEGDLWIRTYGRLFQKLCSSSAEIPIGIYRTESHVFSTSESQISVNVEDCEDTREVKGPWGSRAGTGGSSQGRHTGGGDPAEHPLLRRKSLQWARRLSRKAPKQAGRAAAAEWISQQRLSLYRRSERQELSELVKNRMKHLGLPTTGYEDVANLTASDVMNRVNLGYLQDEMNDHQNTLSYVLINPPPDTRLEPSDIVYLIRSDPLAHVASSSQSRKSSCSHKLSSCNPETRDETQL
# testMethodNotes: KCNT1 patch clamp assay (SyncroPatch 384PE automated patch clamp)
# conditionSet: tetracycline inducible HEK-TREX cell line; perforated patch; step from −80 mV to 0 mV; room temperature; read-out: KCNT1-WT IC50
pIC50: −log10 of the molar value.
readoutLabel: pIC50

The following compounds have reported results that may help.
* Cn1nc(C(F)(F)F)cc1C(=O)NC(CNS(C)(=O)=O)c1nc(-c2cccc(F)c2)no1 (stereo not drawn) [Compound 169] | 4.70 to 6.00
* Cn1nc(C(F)(F)F)cc1C(=O)NC(CC(=O)N1CC(O)C1)c1nc(-c2cccc(F)c2)no1 (stereo not drawn) [Compound 123] | ≤ 4.70
* CO[C@H](C)[C@@H](NC(=O)c1cc(C(F)(F)F)nn1C)c1nc(-c2cccc(F)c2)no1 [Compound 139] | ≥ 6.00
* C[C@H](NC(=O)c1cc(C(F)(F)F)nn1Cc1ccccc1)c1nc(-c2ccnc(C(F)(F)F)c2)no1 [Compound 241] | ≥ 6.00
* C[C@@H](NC(=O)c1cc(C(F)(F)F)nn1C(F)F)c1nc(-c2cccc(Cl)c2)no1 (single isomer, unassigned) [Compound 82] | ≥ 6.00
* Cn1nc(C(F)(F)F)cc1C(=O)N[C@H](CCS(C)(=O)=O)c1nc(-c2cccc(F)c2)no1 (single isomer, unassigned) [Compound 143] | ≤ 4.70

So for C[C@H](NC(=O)c1ccnn1C1CC1)c1nc(-c2ccnc(C3CC3)c2)no1 [Compound 305] , the logged pIC50 turned out to be ≥ 6.00

Entry C[C@H](NC(=O)c1cc(C(F)(F)F)nn1Cc1ccncc1)c1nc(-c2ccnc(C(F)(F)F)c2)no1 [Compound 246] ; pIC50 = ≥ 6.00

The compound CC(NC(=O)c1cc(C(F)(F)F)nn1C)c1nc(-c2cccc(CO)c2)no1 (stereo not drawn) [Compound 176] showed pIC50 equal to 4.70 to 6.00
